Test system: Jurkat
method.summary: competitive inhibition of [3H]SPD transport in JURKAT cells
Format: functional, cell-based, Homo sapiens
measurement.label: Ki

Exercise: Identify measured Ki associated with `NCCCCCNCCCCN`
Key: 2800 nM
